Reference source: patent US12077503B2

- System: velvetleaf (Abutilon theophrasti)
- testMethodNotes: Test C preemergence
- Assay type: in vivo
- conditionSummary: 62 g ai/ha, scale 0 to 100, 0 no effect, 100 complete control
- Text: […]
Answer each item with its documented Plant response rating, Velvetleaf.
One number for each entry.

Before answering, review these 3 worked examples.
CN1C[C@H](c2ccc(C(F)(F)F)cc2)[C@@H](C(=O)Nc2cccc(F)c2F)C1=O [Compound 623] = 60
O=C1NCC(c2cccc(OC(F)(F)C(F)F)c2)C1C(=O)Nc1cccc(F)c1F (racemic) [Compound 697] = 25
O=C1NCC(c2cccc(OC(F)F)c2)C1C(=O)Nc1ccc(F)cc1F (stereo not shown) [Compound 421] = 20

// switching to the query compound
Plant response rating, Velvetleaf recorded for this compound, CN1CC(c2cccc(OC(F)F)c2)C(C(=O)Nc2cccc(F)c2F)C1=O (stereo not shown) [Compound 616] , is 10

====

- Tested on: barnyardgrass (Echinochloa crus-galli)
- testMethodNotes: Test G Post-Emergence Protocol
- Assay type: in vivo
- conditionSummary: Echinochloa crus-galli, post-emergence, 312 h, 250 g ai/ha, evaluated after 13 days, 100=total damage to plant, 0=no damage to plant, read-out: Barnyardgrass damage rating
Decision: pest or weed control at 250 g/ha compared against 70%; not below it gives met, below it gives not met.

Past entries and their recorded results:
CC(C)S(=O)(=O)c1ccccc1NC(=O)[C@H]1C(=O)N(C)C[C@@H]1c1ccc(C(F)(F)F)cc1 (racemic) [Compound 1665] = not met
CC(C)OC(=O)c1cc([C@H]2CN(C)C(=O)[C@@H]2C(=O)Nc2ccccc2F)ccc1F (racemic) [Compound 1730] = met
CN1C[C@H](c2ccc(Cl)cc2)[C@@H](C(=O)Nc2cccnc2F)C1=O [Compound 1810] = met
CN1C[C@H](c2ccc(C(F)(F)F)cc2)[C@@H](C(=O)Nc2cccc3ccsc23)C1=O (racemic) [Compound 1757] = not met
CCOc1cc(C2CN(C)C(=O)C2C(=O)Nc2cccc(F)c2F)cc(C(F)(F)F)c1 (centres unmarked) [Compound 1696] = met
CN1C[C@H](c2ccc(F)c(C#N)c2)[C@@H](C(=O)Nc2ccccc2S(C)(=O)=O)C1=O (racemic) [Compound 1798] = not met

Query: State whether the measured pest or weed control at 250 g/ha reaches 70%, counting equality as reaching it, for CN1CC(c2ccc(F)c(OCC(F)(F)F)c2)C(C(=O)Nc2cccc(F)c2F)C1=O (centres unmarked) [Compound 1718]
Result: met

Query: State whether the measured pest or weed control at 250 g/ha reaches 70%, counting equality as reaching it, for CN1C[C@H](c2ccc(C(F)(F)F)cc2)[C@@H](C(=O)Nc2cnccc2[N+](=O)[O-])C1=O (racemic) [Compound 1729]
Result: not met

Query: State whether the measured pest or weed control at 250 g/ha reaches 70%, counting equality as reaching it, for CON1C[C@H](c2ccc(C(F)(F)F)cc2)[C@@H](C(=O)Nc2cccc(F)c2F)C1=O (racemic) [Compound 1836]
Result: met

Query: State whether the measured pest or weed control at 250 g/ha reaches 70%, counting equality as reaching it, for Cc1cc(C2CN(C)C(=O)C2C(=O)Nc2cccc(F)c2F)cc(C(F)(F)F)c1 (centres unmarked) [Compound 1723]
Result: met

Query: State whether the measured pest or weed control at 250 g/ha reaches 70%, counting equality as reaching it, for CN1C[C@H](c2cccc(C(F)(F)F)c2)[C@@H](C(=O)Nc2c(O)cccc2F)C1=O (racemic) [Compound 1808]
Result: not met

Query: State whether the measured pest or weed control at 250 g/ha reaches 70%, counting equality as reaching it, for Cc1nc(Cl)ccc1NC(=O)[C@H]1C(=O)N(C)C[C@@H]1c1ccc(C(F)(F)F)cc1 (racemic) [Compound 1825]
Result: not met

====

- Test system: ivy-leaved morning glory (Ipomoea hederacea)
- testMethodNotes: Test G Post-Emergence Protocol
- Assay type: in vivo
- conditionSummary: Ipomoea, post-emergence, 312 h, 62.5 g ai/ha, evaluated after 13 days, read-out: Morningglory, Ivy-leaved damage rating (100=total damage to plant; 0=no damage to plant)
Answer each item with its documented pest or weed control at 62.5 g/ha.

Before answering, review these 5 worked examples.
CN1C[C@H](c2cccc(C(F)F)c2)[C@@H](C(=O)Nc2ccccc2F)C1=O (racemic) = 20%
Cc1cc(NC(=O)[C@@H]2C(=O)N(C)C[C@H]2c2ccc(C(F)(F)F)cc2)no1 (racemic) = 0%
Cc1c(NC(=O)[C@H]2C(=O)N(C)C[C@@H]2c2ccc(C(F)(F)F)cc2)cccc1C(F)(F)F (racemic) = 0%
CN1C[C@@H](c2ccc(C(F)(F)F)cc2)[C@H](C(=O)Nc2cn[nH]c2)C1=O (racemic) = 0%
CN1C[C@H](c2ccc(C(F)(F)F)cc2)[C@@H](C(=O)Nc2ccc(F)cn2)C1=O (racemic) = 10%

List pest or weed control at 62.5 g/ha for every entry below, keeping the order given.
1. CN1C[C@H](c2ccc(C(F)(F)F)cc2)[C@@H](C(=O)Nc2ccccc2C(C)(C)C)C1=O (racemic)
2. CN1C[C@@H](c2ccc(C(F)(F)F)cc2)[C@H](C(=O)Nc2cc(C(F)(F)F)nn2C)C1=O (racemic)
3. Cc1cc(NC(=O)[C@@H]2C(=O)N(C)C[C@H]2c2ccc(C(F)(F)F)cc2)n[nH]1 (racemic)
4. CN1C[C@@H](c2ccc(Cl)nc2)[C@H](C(=O)Nc2cccc(F)c2F)C1=O (racemic)
5. CN1C[C@@H](c2ccc(C(F)(F)F)cc2)[C@H](C(=O)Nc2cnccn2)C1=O (racemic)
6. CC(C)c1cc([C@H]2CN(C)C(=O)[C@@H]2C(=O)Nc2cccc(F)c2F)cnn1 (racemic)

Result:
1: 0%; 2: 0%; 3: 0%; 4: 20%; 5: 10%; 6: 0%

List pest or weed control at 62.5 g/ha for every entry below, keeping the order given.
1. CSc1nc(N)cc(NC(=O)[C@@H]2C(=O)N(C)C[C@H]2c2ccc(C(F)(F)F)cc2)n1 (racemic)
2. Cc1cc(C(F)(F)F)ccc1[C@@H]1CN(C)C(=O)[C@H]1C(=O)Nc1ccccc1F (racemic)
3. CN1C[C@H](c2cccc(C(F)(F)F)c2)[C@@H](C(=O)Nc2cccnc2F)C1=O
4. Cc1cc(Cl)ncc1NC(=O)[C@@H]1C(=O)N(C)C[C@H]1c1ccc(C(F)(F)F)cc1 (racemic)

Result:
["10%", "10%", "60%", "10%"]

List pest or weed control at 62.5 g/ha for every entry below, keeping the order given.
1. CN1C[C@@H](c2ccc(C(F)(F)F)cc2)[C@H](C(=O)Nc2nn[nH]n2)C1=O (racemic)
2. Cc1ccncc1NC(=O)[C@@H]1C(=O)N(C)C[C@H]1c1ccc(C(F)(F)F)cc1 (racemic)
3. CN1C[C@@H](c2ccc(C(F)(F)F)cc2)[C@H](C(=O)Nc2nc[nH]n2)C1=O (racemic)
4. CN1C[C@@H](c2ccc(C(F)(F)F)cc2)[C@H](C(=O)Nc2nccnc2Cl)C1=O (racemic)

Result:
0%
0%
0%
0%

====

Answer each item with its documented pest or weed control at 125 g/ha.
- System: ryegrass, Italian (Italian ryegrass, Lolium multiflorum)
- testMethodNotes: Test A preemergence
- Assay type: in vivo
- conditionSummary: Lolium multiflorum, pre-emergence, 240 h, Preemergence, 125 g ai/ha; 0 to 100 scale (0 no effect, 100 complete control); read-out: Plant response rating, Ryegrass, Italian
Give bare numbers, in %.

Before answering, review these 3 worked examples.
CN1C[C@H](c2ccc(C(F)(F)F)cc2)[C@@H](C(=O)Nc2cccc(F)c2C#N)C1=O [Compound 1380] = 50
C=CCOc1cccc(C2CN(C)C(=O)C2C(=O)Nc2ccccc2F)c1 (stereo not drawn) [Compound 1329] = 0
CN1C[C@H](c2cccc(C(C)(F)F)c2)[C@@H](C(=O)Nc2ccc(F)cc2F)C1=O [Compound 1319] = 30

List pest or weed control at 125 g/ha for every entry below, keeping the order given.
1. CO[C@]1(C(=O)Nc2cccc(F)c2F)C(=O)N(C)C[C@@H]1c1ccc(C(F)(F)F)cc1 (racemic) [Compound 1334]
2. CN1C[C@H](c2ccc(C(F)(F)F)cc2)[C@@H](C(=O)Nc2ccc(F)nc2F)C1=O [Compound 1347]

Result:
0
30

pest or weed control at 125 g/ha recorded for this compound, Cc1cccc([C@H]2CN(C)C(=O)[C@@H]2C(=O)Nc2ccc(F)nc2F)c1 [Compound 1349] , is 0

====

- System: Galium (catchweed bedstraw, Galium aparine)
- testMethodNotes: Test A postemergence
- Type: in vivo
- conditionSummary: Galium, post-emergence, 240 h, 125 g ai/ha, postemergence; visual injury after approximately 10 d; 0 to 100 scale (0 no effect, 100 complete control); read-out: Plant response rating, Galium
Decision: pest or weed control at 125 g/ha compared against 30%; not below it gives y, below it gives n.

Cc1ccc(NC(=O)[C@H]2C(=O)N(C)C[C@@H]2c2cc(F)cc(F)c2)c(F)c1F [Compound 771] = y
CN1C[C@H](c2nccs2)[C@@H](C(=O)Nc2ccccc2F)C1=O [Compound 773] = n
Cc1cc([C@H]2CN(C)C(=O)[C@@H]2C(=O)Nc2cccc(F)c2F)cc(C)c1C [Compound 796] = y

Query: State whether the measured pest or weed control at 125 g/ha reaches 30%, counting equality as reaching it, for CN1C[C@H](c2ccc(F)c(OC(F)(F)C(F)F)c2)[C@@H](C(=O)Nc2ccccc2F)C1=O [Compound 740]
Result: y

Query: State whether the measured pest or weed control at 125 g/ha reaches 30%, counting equality as reaching it, for CN1C[C@H](c2ccc(OC(F)F)cc2)[C@@H](C(=O)Nc2ccccc2S(C)(=O)=O)C1=O [Compound 788]
Result: y

Query: State whether the measured pest or weed control at 125 g/ha reaches 30%, counting equality as reaching it, for COc1ccc([C@H]2CNC(=O)[C@@H]2C(=O)Nc2ccccc2S(C)(=O)=O)cc1F [Compound 721]
Result: n
